Molecular target: furin, P09958;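 further: purified furin at 1:10 enzyme:substrate in 50 mM HEPES pH 7.5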
Sequence (P09958 whole entry): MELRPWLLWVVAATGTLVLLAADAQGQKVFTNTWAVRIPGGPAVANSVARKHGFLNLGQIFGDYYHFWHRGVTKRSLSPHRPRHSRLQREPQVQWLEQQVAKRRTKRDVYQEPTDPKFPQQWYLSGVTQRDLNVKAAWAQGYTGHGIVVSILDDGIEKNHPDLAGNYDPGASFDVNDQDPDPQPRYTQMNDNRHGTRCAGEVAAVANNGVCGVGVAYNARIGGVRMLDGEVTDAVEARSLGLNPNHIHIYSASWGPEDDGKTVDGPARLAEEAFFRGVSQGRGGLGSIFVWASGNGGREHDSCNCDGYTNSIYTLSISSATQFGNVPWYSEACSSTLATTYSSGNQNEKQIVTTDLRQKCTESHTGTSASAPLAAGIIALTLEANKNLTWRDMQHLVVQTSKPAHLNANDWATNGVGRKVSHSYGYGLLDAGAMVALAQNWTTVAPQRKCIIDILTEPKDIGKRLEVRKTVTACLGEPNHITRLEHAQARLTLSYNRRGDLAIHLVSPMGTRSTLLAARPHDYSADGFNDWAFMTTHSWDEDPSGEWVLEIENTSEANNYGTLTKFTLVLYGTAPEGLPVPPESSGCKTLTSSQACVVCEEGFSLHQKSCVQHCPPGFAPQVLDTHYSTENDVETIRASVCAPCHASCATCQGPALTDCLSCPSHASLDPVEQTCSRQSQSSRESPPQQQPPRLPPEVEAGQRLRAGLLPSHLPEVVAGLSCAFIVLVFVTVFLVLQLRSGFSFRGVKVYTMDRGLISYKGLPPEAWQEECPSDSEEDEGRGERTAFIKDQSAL
Experiment: furin cleavage Z-score vs untreated control; higher = more cleavage, active = 3.5 or more, inactive = 1 or less, 8 variable residues between constant flanks
Conditions: 15 min
The other results are listed elsewhere or left out. No count for the full screen is at hand.
Parameter furin cleavage Z-score: see the listing below.
Write the value as a bare number.

CATTVCSGSWAGNASASA [HC1870]	-0.656
CATGPCSGSWAGNASASA [HC1856]	-0.739
CAHAYRHRRLAGNASASA [FS-1531]	2.16

Continue with the sequence presented below.
Lookup: Given the sequence CAVVVATDALAGNASASA [HC877] , write its reported furin cleavage Z-score.
Found: -0.967
